Record form. Attribute: SPOT peptide array binding signal intensity. Fill in for each entry.
biological target: ScBbc1; assay: SPOT peptide array binding signal intensity (averaged, normalized) (arbitrary units (background-subtracted, floor 0; scale differs between SH3 domains)); higher = stronger binding of the SH3 domain to the peptide
Give bare numbers.

Below, each entry is followed by its recorded SPOT peptide array binding signal intensity result.
IKTRSVPKIPSIESV ... 37.8
EEEEEHPPLPARRKS ... 6.25
NLPKRKPPKLQGPFS ... 6.25
RRRDFGAPANKRPRR ... 65

Please look at the following binder next.
Which SPOT peptide array binding signal intensity value is on record for SSTPTTPERPKRKSG ? 2030

Numbers sourced from the supplement of paper PMC4466140.
